# measurement.target: T1, alpha-COP WD40 (Schizosaccharomyces pombe), Q96WV5
# T1 chain: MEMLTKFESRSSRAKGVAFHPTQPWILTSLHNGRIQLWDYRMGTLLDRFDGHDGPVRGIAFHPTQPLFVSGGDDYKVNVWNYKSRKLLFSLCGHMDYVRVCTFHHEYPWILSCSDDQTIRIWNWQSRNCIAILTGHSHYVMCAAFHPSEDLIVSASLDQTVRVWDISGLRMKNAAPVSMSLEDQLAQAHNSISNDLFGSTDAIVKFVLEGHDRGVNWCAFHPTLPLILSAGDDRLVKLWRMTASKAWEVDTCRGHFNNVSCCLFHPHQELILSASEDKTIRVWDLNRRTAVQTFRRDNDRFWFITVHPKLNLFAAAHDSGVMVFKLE
# assay.setup: modification not given
pKd: −log10 of the molar value.
assay.metric: pKd

1. GVKLHYT [Spike tail heptapeptide] :: 5.85
